Recorded abundance fitness, one value per entry.
B1: FERM and PDZ domain-containing protein 4, residues 75 to 154; numbered along this chain, Q14CM0 (parent)
chain: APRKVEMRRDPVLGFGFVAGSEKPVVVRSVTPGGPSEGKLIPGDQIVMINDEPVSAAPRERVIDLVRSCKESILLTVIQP

- Variants of: B1
- Assay Remarks: abundance fitness (aPCA) (normalised: wild type 0, dead -1); higher = more abundant; growth selection in yeast, the domain comes from the species named
- Condition Notes: Homo sapiens
Property: abundance fitness

{"Variant String": "S29C", "Property": "abundance fitness", "Numeric Value": -0.136}
{"Variant String": "V47H", "Property": "abundance fitness", "Numeric Value": -0.06}
{"Variant String": "D10Y", "Property": "abundance fitness", "Numeric Value": -0.521}
{"Variant String": "R3C", "Property": "abundance fitness", "Numeric Value": -0.985}
{"Variant String": "E52G", "Property": "abundance fitness", "Numeric Value": -0.321}
{"Variant String": "P32D", "Property": "abundance fitness", "Numeric Value": -0.075}
{"Variant String": "T76R", "Property": "abundance fitness", "Numeric Value": -0.058}
{"Variant String": "I41E", "Property": "abundance fitness", "Numeric Value": 0.015}
{"Variant String": "S36V", "Property": "abundance fitness", "Numeric Value": -0.668}
{"Variant String": "S29L", "Property": "abundance fitness", "Numeric Value": -0.152}
{"Variant String": "V12S", "Property": "abundance fitness", "Numeric Value": -0.006}
{"Variant String": "N50D", "Property": "abundance fitness", "Numeric Value": -0.035}
{"Variant String": "V30T", "Property": "abundance fitness", "Numeric Value": -0.089}
{"Variant String": "R8F", "Property": "abundance fitness", "Numeric Value": 0.013}
{"Variant String": "I73R", "Property": "abundance fitness", "Numeric Value": -0.669}

Values compiled from the Human Domainome abundance scans (Beltran et al. 2025).
